In this section, each of the binders is paired with its reported koff.
- system.name: T1, RlpA-Δ32 (P. aeruginosa PAO1, UniProt Q9X6V6 32-342)
- T1 construct: source: E. coli BL21-star (DE3), purified (Ni-NTA)
- T1 sequence: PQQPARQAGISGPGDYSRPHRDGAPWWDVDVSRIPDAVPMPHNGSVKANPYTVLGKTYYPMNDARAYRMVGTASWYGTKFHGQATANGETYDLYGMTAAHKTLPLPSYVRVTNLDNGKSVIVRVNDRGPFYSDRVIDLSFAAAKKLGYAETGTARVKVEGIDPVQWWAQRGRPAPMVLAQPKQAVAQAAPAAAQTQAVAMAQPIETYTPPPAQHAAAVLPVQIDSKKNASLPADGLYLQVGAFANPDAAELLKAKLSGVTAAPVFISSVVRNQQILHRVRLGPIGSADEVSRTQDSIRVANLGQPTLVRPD
- assay.name: SPR
- conditions: both partners purified
endpoint.name: koff (s⁻¹)

{"columns": ["binder", "endpoint.name", "quantitative.result"],
 "data": [
  ["PilO (natural protein, source: E. coli, purified (Ni-NTA or Strep-Tactin)) YNFHLSDMQAQLEQQAAEEETLKQQFSTKAFQAANLEAYKAQMKEMEESFGALLRQLPSDTEVPGLLEDITRTGLGSGLEFEEIKLLPEVAQQFYIELPIQISVVGGYHDLATFVSGVSSLPRIVTLHDFEIKPVAPGSTSKLRMSILAKTYRYNDKGLKK", "koff", 0.00275],
  ["PA2854 (natural protein, source: E. coli, purified (Ni-NTA or Strep-Tactin)) LELQLPPPGEDVVGQVQVIKAKYEDTFADLGEQYNLGYSEMVAANPGVDPWLPGVGTEVIIPTRFVLPPGPREGVVINLAEYRLYYYPKGQNVVHTYPLGIGREGWGSPIANTRITAKTKDPAWYPPASIRAEHAADGDPLPTVVPPGPDNPLGPYKLTLGVPGYLIHGSNKKFGIGTRTSHGCFRMYNADVTHLFSMISVGTSVRIINEPYKFGVSNGKVYLEAHTPLNDHGDPSVVDKHTAVINTLLKRDDLAKRIQLNWDVVREVVASEDGVPVEIAQESAPAMTATVDSDPTQLTP", "koff", 0.00032],
  ["SltB1 (enzyme, P. aeruginosa PAO1, UniProt Q9HX24 1-340, looked up) GDYDGSPQVAEFVSEMTRDYGFAGEQLMGLFRDVNRKQSILDAISRPAERVKQWKEYRPIFISDARISRGVDFWNKHAEDLARAEKEYGVPAEIIVSIIGVETFFGRNTGSYRVMDALSTLGFDYPPRADFFRKELREFLLLAREQQVDPLSLTGSYAGAMGLPQFMPSSFRAYAVDFDGDGHINIWSDPTDAIGSVASYFKQHGWVTGEPVVSVAEINDESAESAVTRGVDPTMSLGELRARGWRTHDALRDDQKVTAMRFVGDKGIEYWVGLPNFYVITRYNRSAMYAMAVYQLAGEIARARGAH", "koff", 0.00127],
  ["PA4063 (natural protein, source: E. coli, purified (Ni-NTA or Strep-Tactin)) HDDHDHDHAHGSLGKHEHGVAQLNVALDGKTLELELDSPAMNLVGFEHAASTDADKAAVAKARAQLEKPLELFALPVTAGCSVASQELRSPLFGDKAPAHAHKEKAGHEHEHEHEHEHGHADIHAHYQLSCEKPELLKLLTLAEFFKRFPATQKIQVQLIGPDGQKGADLAPASAELKL", "koff", 0.00145]
]}
